Values were extracted from patent US20140017242A1.

- TARGET: T1, human BKB2R-derived epitope peptide (SEQ ID NO:73), PEG-biotin (human, also: PEG-biotin, site not given here)
- T1 construct: also called immunogenic human BKB2R peptide fragment
- T1 peptide: KEYSDEGHNVTAC
- TEST DESCRIPTION: BLI (Octet), peptide-PEG-biotin on streptavidin sensor, antibody 500 nM
Where no end group is shown, it is not given here.
Would you mind telling me the reported kon of each entry?
Write down the value, and be sure its unit follows.

Which kon value belongs to humanized anti-BKB2R antibody H37/L38 (antibody, human IgG2, kappa, V domains shown) VH: EVQLVESGGGLVQPGGSLRLSCAASGFTFSDYWMDWVRQAPGKGLEWVGEIRLKSDNYATHYAASVKGRFTISRDDSKNSLYLQMNSLKTEDTAVYYCTRDYYAMEYWGQGTTVTVSS VL: DIVMTQTPLSLPVTSGEPASISCRSSQTIVHSNGKTYLDWYLQKPGQSPQLLIYKVSNRASGVPDRFSGSGSGTDFTLKISRVEAEDVGVYYCFQASHVPYTFGGGTKVEIKR ?
9.47e+06 M⁻¹ s⁻¹

Proceed to humanized anti-BKB2R antibody H38/L38 (antibody, human IgG2, kappa, V domains shown) VH: EVQLLESGGGLVQPGGSLKLSCAVSGFTFSDYWMSWVRQAPGKGLEWVSEIRLKSDNYATHYADSVKGRFTISRDDSKNTLYLQMNSLRAEDTAVYYCTRDYYAMEYWGQGTLVTVSS VL: DIVMTQTPLSLPVTSGEPASISCRSSQTIVHSNGKTYLDWYLQKPGQSPQLLIYKVSNRASGVPDRFSGSGSGTDFTLKISRVEAEDVGVYYCFQASHVPYTFGGGTKVEIKR
3.06e+06 M⁻¹ s⁻¹

Proceed to humanized anti-BKB2R antibody L2/H2 (antibody, human IgG2, kappa, V domains shown, also called H2/L2) VH: EVQLVESGGGLVQPGGSLRLSCVASGFTFSDYWMSWVRQAPGKGLEWVAEIRLKSDNYATHYAESVKGRFTISRDDAKNSLYLQMNSLRAEDTAVYYCTRDYYAMEYWGQGTLVTVSS VL: DIVMTQSPLSLPVTPGEPASISCRSSQTIVHSNGKTYLEWYLQKPGQSPQLLIYKVSNRFSGVPDRFSGSGSGTEFTLKISRVEAEDVGVYYCFQASHVPYTFGQGTKLEIKR
992000 M⁻¹ s⁻¹
